Test system: HeLa
Assay: Primary qHTS to identify gynecologic anti-cancer compounds using libraries of approved drugs and bioactive compounds (AID 1345084); note: nearly all actives have a fitted effect of over 55% in size; note: potency is the fitted concentration of half-maximal effect
Settings: Gynecologic cancer cell panel viability, ATPlite luminescence, 48 h; series mostly up to 57.5 µM
Results filed as inconclusive are left out. Activity calls are given as the source filed them. Calls come from the whole dose curve; as a rule, active = well fitted cell-killing curve with a large enough effect; inconclusive = small, poorly fitted or top-dose-only effect, or effect the other way; inactive = flat fitted curve, though single readings scatter.
quantity.name: Potency

Previously resolved entries follow.
# compound, target.or.system, assay.result
data = [
    ("C=C(C(=O)OC)C1C(O)CC2(C)C(=O)CCC(O)(CO)C2C1O (centres undefined)", "HeLa", "inactive"),
    ("Nc1nc2c(c(=O)[nH]1)C[C@@H](CCc1ccc(C(=O)N[C@@H](CCC(=O)O)C(=O)O)cc1)CN2", "HeLa", "282 nM (active)"),
    ("CC(=O)NC1C(OC(C)(C)C2CCC3(C)C=C(C4CCC5C4(C)CC(O)C4OC(C(C)(C)O)CCC45C)CCC3O2)OC(CO)C(O)C1O (centres undefined)", "HeLa", "inactive"),
    ("COc1nc2sc(C(=O)NC3CC3)c(N)c2c(C)c1Cl", "HeLa", "inactive"),
    ("COc1cc2c(cc1O)[C@H](c1ccc(O[C@@H]3O[C@H](CO)[C@@H](O)[C@H](O)[C@H]3O)c(OC)c1)[C@@H](CO)[C@](O)(CO)C2", "HeLa", "inactive"),
    ("COc1c2c(c(C)c3c1C(=O)OC3)O[C@@]1(C)CCC3(C(C)(C)O)OC(=O)CC[C@]3(C)[C@H]1C2 (some centres undefined)", "HeLa", "inactive"),
    ("CCCCc1nc2cc(/C=C/C(=O)NO)ccc2n1CCN(CC)CC", "HeLa", "2510 nM (active)"),
    ("CO/N=C(/C(=O)N[C@@H]1C(=O)N2C(C(=O)O)=C(Cn3ccc(=N)n3CCO)CS[C@H]12)c1csc(N)n1", "HeLa", "inactive"),
]

We next turn to a different compound, shown below.
Ask | Which Potency reading was recorded for the compound NC(=O)c1csc(C2OC(CO)C(O)C2O)n1 (centres undefined) ?
Reply | inactive

* * *

Kindly supply the reported max response values for the records listed here.
System: HEK293
Assay: Cytotoxic Profiling of Annotated Libraries Using Quantitative High-Throughput Screening (AID 1296008); note: nearly all actives have a fitted effect of over 60% in size; for max response: % is set by controls: 0 for no effect and ±100 for the full control effect
Conditions: Five cell lines viability, CellTiter-Glo ATP luminescence, 48-72 h; stronger effect = lower value
Records with an inconclusive call do not appear.
Dear colleague, please return just the value in %, with no unit written.

Ask | Which max response reading was recorded for the compound COc1ccccc1NC(=O)OCC1CCN(C(=O)OC(C)(C)C)CC1 ?
Reply | -0.473

Ask | Next compound up: C[C@@H]1O[C@@H](O[C@@H]2CO[C@@H](O[C@H]3CC[C@@]4(C)C(CC[C@]5(C)C4CC=C4[C@@H]6CC(C)(C)CC[C@]6(C(=O)O[C@@H]6O[C@H](CO)[C@@H](O)[C@H](O)[C@H]6O)CC[C@]45C)[C@]3(C)CO)[C@H](O)[C@H]2O[C@@H]2O[C@H](CO)[C@@H](O)[C@H](O)[C@H]2O)[C@H](O)[C@H](O)[C@H]1O (stereo partly drawn)
Reply | 1.34

Ask | Next compound up: CC12CCC3c4ccc(O)cc4CCC3C1CC(OC1OC(C(=O)O)C(O)C(O)C1O)C2O (stereo not drawn)
Reply | 4.04

* * *

Tested on: Zika virus NS2B-NS3 protease (unlinked complex)
Assay: Primary screen GU Rhodamine qHTS for Zika virus inhibitors: Unlinked NS2B-NS3 protease assay (AID 1347159); note: % is set by controls: 0 for no effect and ±100 for the full control effect; nearly all actives have a fitted effect of over 60% in size
Conditions: Recombinant ZIKV NS2B-NS3 protease, Rhodamine110 substrate fluorescence; series mostly up to 107 µM
Results filed as inconclusive are left out. Active and inactive are the calls of the source. Calls come from the whole dose curve; as a rule, active = well fitted inhibition curve with a large enough effect; inconclusive = small, poorly fitted or top-dose-only effect; inactive = no such curve, though single readings can be large or run the other way.
quantity.name: outcome

Previously resolved entries follow.
# compound, target.or.system, quantity.name, assay.result
records = [
    ("CC(=O)N[C@H]1[C@H](O[C@H]2CC[C@@]3(C)C(CC[C@]4(C)C3CC=C3[C@@H]5CC(C)(C)CC[C@]5(C(=O)OC5OCC(O)C(O)C5O)CC[C@]34C)C2(C)C)O[C@H](COC2OC(C)C(O)C(OC3OC(C)C(O)C(O)C3O)C2O)[C@@H](O)[C@@H]1O (stereo partly specified)", "Zika virus NS2B-NS3 protease (unlinked complex)", "outcome", "inactive"),
    ("CC1=CC2/C=C(\\C)CC[C@@H](O)[C@@H](O)[C@@H]3O[C@@H]3C(=O)[C@]23C(=O)N[C@@H](CC(C)C)[C@@H]3[C@@H]1C (stereo partly specified)", "Zika virus NS2B-NS3 protease (unlinked complex)", "outcome", "inactive"),
    ("COC(=O)C1=COC(OC2OC(CO)C(O)C(O)C2O)C2C1C=CC2(O)CO (stereo unspecified)", "Zika virus NS2B-NS3 protease (unlinked complex)", "outcome", "inactive"),
    ("CNC(=O)c1ccccc1Nc1nc(Nc2ccc3c(c2OC)CCC[C@@H](N2CCN(CCO)CC2)C3)ncc1Cl", "Zika virus NS2B-NS3 protease (unlinked complex)", "outcome", "inactive"),
    ("CC1(C=O)CC[C@]2(C(=O)O[C@@H]3O[C@H](CO)[C@@H](O)[C@H](O)[C@H]3O)CC[C@]3(C)C(=CCC4[C@@]5(C)C[C@H](O)[C@H](O[C@@H]6OC[C@@H](O)[C@H](O)[C@H]6O)[C@@](C)(CO)C5CC[C@]43C)C2C1 (stereo partly specified)", "Zika virus NS2B-NS3 protease (unlinked complex)", "outcome", "inactive"),
    ("COc1ccc([C@@H]2OC[C@H]3[C@@H]2CO[C@@H]3c2ccc(OC3OC(CO)C(O)C(O)C3O)c(OC)c2)cc1OC (stereo partly specified)", "Zika virus NS2B-NS3 protease (unlinked complex)", "outcome", "inactive"),
    ("CC(C)(F)C[C@@H](N[C@@H](c1ccc(-c2ccc(S(C)(=O)=O)cc2)cc1)C(F)(F)F)C(=O)NC1(C#N)CC1", "Zika virus NS2B-NS3 protease (unlinked complex)", "outcome", "inactive"),
    ("O=C1NC(=O)C(c2cn(-c3ccccc3)nc2-c2ccc(F)cc2)N1 (stereo unspecified)", "Zika virus NS2B-NS3 protease (unlinked complex)", "outcome", "inactive"),
    ("C=C(C(=O)OC)C1C(O)CC2(C)C(O)CCC(=O)C2C1O (stereo unspecified)", "Zika virus NS2B-NS3 protease (unlinked complex)", "outcome", "inactive"),
    ("COc1ccc(CNC(=O)c2sc3nc(C)cc(C)c3c2N)cc1", "Zika virus NS2B-NS3 protease (unlinked complex)", "outcome", "inactive"),
]

Ask | Which outcome reading was recorded for the compound COC(=O)CC(O)CC(O)/C=C/c1c(C)ccc2c1C(O)CC(C)C2 (stereo unspecified) ?
Reply | inactive

Ask | Next compound up: O=C(NCc1ccc(S(=O)(=O)c2cc(F)cc(F)c2)cc1)c1ccc2nccn2c1
Reply | inactive

Ask | Next compound up: O=[N+]([O-])c1cn2c(n1)OCC(OCc1ccc(OC(F)(F)F)cc1)C2 (stereo unspecified)
Reply | inactive

Ask | Next compound up: Cc1ccc(S(=O)(=O)n2ccc(-c3c(-c4ccc(Cl)cc4)noc3C)n2)cc1
Reply | inactive

Ask | Next compound up: Cc1c(F)cc(C(=O)NC2CC2)cc1-c1c(F)cn2c(C(C)(C)C)nnc2c1F
Reply | inactive

Ask | Next compound up: CC(C)CNCc1ccc(-c2ccccc2S(=O)(=O)N2CCCC2)cc1
Reply | inactive

* * *

System: NIH3T3
Assay: Cytotoxic Profiling of Annotated Libraries Using Quantitative High-Throughput Screening (AID 1296008); note: nearly all actives have a fitted effect of over 60% in size
Details: Five cell lines viability, CellTiter-Glo ATP luminescence, 48-72 h
Protocol: Cell-based phenotypic screening is a commonly used approach to discover biological pathways, novel drug targets, chemical probes and high-quality hit-to-lead molecules. […] A pintool (Kalypsys) was used to transfer 23 nL of compound solution to the 1536-well assay plates. […] Plates were left at room temperature for 10 min before imaging the ATP-coupled luminescence using a ViewLux microplate imager (PerkinElmer, Waltham, MA).
Results filed as inconclusive are left out. Activity calls are given as the source filed them. The call rests on the fitted dose curve; in most records, active means well fitted inhibition curve with a large enough effect; inconclusive means small, poorly fitted or top-dose-only effect; inactive means flat fitted curve, though single readings scatter.
Answer with one of the outcomes yes (1) = active, no (0) = inactive

Ask | Identify the outcome logged in this assay for the compound shown: CCc1cnn2c(NCc3ccc[n+]([O-])c3)cc(N3CCCCC3CCO)nc12 (centres undefined)
Reply | yes (1)

Ask | Next compound up: C=C(C(=O)OC)C1C(O)CC2(C)C(=O)CCC(O)(CO)C2C1O (centres undefined)
Reply | no (0)

Ask | Next compound up: CN(C)C/C=C/C(=O)Nc1cccc(C(=O)Nc2ccc(Nc3nccc(-c4cccnc4)n3)cc2)c1
Reply | yes (1)

Ask | Next compound up: COc1cc2c(cc1O)CC[C@H]1[C@@H]2CC[C@]2(C)[C@H](O)CC[C@@H]12
Reply | yes (1)

Ask | Next compound up: Nc1ccc(-c2cccc3c(=O)cc(N4CCOCC4)oc23)cc1
Reply | yes (1)

Ask | Next compound up: C[C@H](CCC(=O)O)[C@H]1CC[C@H]2[C@@H]3C[C@H](O)[C@@H]4C[C@H](O)CC[C@]4(C)[C@H]3CC[C@]12C
Reply | no (0)

Ask | Next compound up: FC(F)(F)c1ccc(Nc2nc(-c3c(C(F)(F)F)nc4ccccn34)cs2)cc1
Reply | yes (1)

Ask | Next compound up: Cc1cc(O)c(-c2ccc([C@@H](C)CN(C)C)cc2)c2c1[nH]c(=O)c1sccc12
Reply | yes (1)

Ask | Next compound up: O=C(NCc1ccc(S(=O)(=O)c2cc(F)cc(F)c2)cc1)c1ccc2nccn2c1
Reply | yes (1)

From: PubChem BioAssay (NCATS)
